tested.target: extracellular domain of human BLyS protein (hBLyS-ECD), His-tagged, Ala134-Leu285 (human, UniProt Q9Y275 134-285)
Sequence (Q9Y275 134-285): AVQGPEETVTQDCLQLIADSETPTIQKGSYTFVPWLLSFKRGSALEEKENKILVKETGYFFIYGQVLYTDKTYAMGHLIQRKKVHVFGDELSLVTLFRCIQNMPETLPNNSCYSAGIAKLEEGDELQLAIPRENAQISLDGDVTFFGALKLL
experiment.description: cell-based or functional assay
property.measured: OD450 nm (as headed), mouse B lymphocyte proliferation; antibody 0.000256 nM
Number, no unit, nothing else.

Completed entries (count: 2):
binder | value.observed
c97A3C2H4 (antibody, V domains shown, also called chimeric antibody c97A3C2H4) VH: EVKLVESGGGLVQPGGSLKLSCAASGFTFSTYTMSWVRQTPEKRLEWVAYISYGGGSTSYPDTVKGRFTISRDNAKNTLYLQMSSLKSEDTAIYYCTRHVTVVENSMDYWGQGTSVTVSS VL: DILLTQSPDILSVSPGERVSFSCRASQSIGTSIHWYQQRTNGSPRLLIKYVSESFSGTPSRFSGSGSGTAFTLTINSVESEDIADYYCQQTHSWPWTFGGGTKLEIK | 5020
c93C6F10D3 (antibody, V domains shown) VH: EVQLVESGGGLVTPGGSLKLSCVASGFAFSTYGMSWVRQTPERRLEWVAYISGGGGSIYYPDSVKGRFTISRDNAKNILYLQMSSLKSEDTAMYHCTRHPDLLLRYDYALDHWGQGTSVTVSS VL: DIQMTQSPASLSASVGETVTITCRASENIHIYLAWYQQKQGKSPQLLVYNGKTLADGVPSRFSGSGSGTQYSLKINTLQPEDFGNYYCQHFWNSTWTFGGGTKLEIK | 4600

Now let's try a different one.
Looking up c8E7D9C7F5 (antibody, V domains shown, also called chimeric antibody c8E7D9C7F5) VH: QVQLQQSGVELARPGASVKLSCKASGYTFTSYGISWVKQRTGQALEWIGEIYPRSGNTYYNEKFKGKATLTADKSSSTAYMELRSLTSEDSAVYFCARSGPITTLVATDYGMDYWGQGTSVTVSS VL: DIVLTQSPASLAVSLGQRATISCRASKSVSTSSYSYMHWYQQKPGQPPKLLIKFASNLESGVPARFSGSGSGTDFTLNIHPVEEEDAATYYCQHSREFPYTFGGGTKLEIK , I found its OD450 nm (as headed), mouse B lymphocyte proliferation; antibody 0.000256 nM recorded as 4970
